Biological target: panel of 442 kinases (Homo sapiens, UniProt Q15759)
Construct: purchased KINOMEscan
Sequence (Q15759 whole entry): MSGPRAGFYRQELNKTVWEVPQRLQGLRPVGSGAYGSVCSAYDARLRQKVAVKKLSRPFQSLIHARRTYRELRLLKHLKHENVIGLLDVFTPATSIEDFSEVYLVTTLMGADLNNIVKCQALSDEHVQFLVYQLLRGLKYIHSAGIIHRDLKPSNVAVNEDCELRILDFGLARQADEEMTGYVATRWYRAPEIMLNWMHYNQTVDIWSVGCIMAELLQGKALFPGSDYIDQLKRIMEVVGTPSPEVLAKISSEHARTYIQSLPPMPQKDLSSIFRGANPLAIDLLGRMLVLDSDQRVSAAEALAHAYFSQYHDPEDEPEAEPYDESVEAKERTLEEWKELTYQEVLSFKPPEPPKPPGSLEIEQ
Type: binding
Details: Compound Concentration 10 µM
Description: We assessed the selectivity of members of this scaffold using the KINOMEscan methodology across a near comprehensive panel of 442 kinases [[18,27]].
Recorded KINOMEscan: p38-beta by entry
Property Name: KINOMEscan: p38-beta

Smi | Result
COc1cc(C(=O)N2CCC(N3CCN(C)CC3)CC2)ccc1Nc1ncc2c(n1)N(C1CCCC1)c1ccccc1C(=O)N2C | 56
CCOc1cc(C(=O)N2CCC(N3CCN(C)CC3)CC2)ccc1Nc1ncc2c(n1)N(C1CCCC1)c1ccccc1C(=O)N2C | 81
COc1cc(C(=O)N2CCC(N3CCN(C)CC3)CC2)ccc1Nc1ncc2c(n1)N1CCc3cccc(c31)C(=O)N2C | 56
COc1cc(C(=O)N2CCC(N3CCN(C)CC3)CC2)ccc1Nc1ncc2c(n1)N(C)c1ccccc1C(=O)N2C | 60

The values you see were collected from paper PMC3914206.
